The reported numbers originate from patent US6096338A.

assay: Aqueous solubility of progesterone in buffer, bile and lipolytic products; format: physicochemical; conditions: Buffer + 15 mM ox bile + 0.5% MCLPs, pH 6.5, 37° C.; read-out: Progesterone solubility after 120 minutes
OUTCOME MEASURE: solubility at 2 h (µg/mL)
# number only, unit µg/mL dropped from output

Quick one: solubility at 2 h of CC(=O)[C@H]1CC[C@H]2[C@@H]3CCC4=CC(=O)CC[C@]4(C)[C@H]3CC[C@]12C ?
142

* * *

assay: Aqueous solubility of progesterone in buffer, bile and lipolytic products; type: physicochemical; settings: aqueous buffer; Buffer alone, pH 6.5, 37° C.; read-out: Progesterone solubility after 60 minutes
OUTCOME MEASURE: solubility at 1 h
Provide a numeric answer, followed by its unit.

Fill in the blank: the reported solubility at 1 h of CC(=O)[C@H]1CC[C@H]2[C@@H]3CCC4=CC(=O)CC[C@]4(C)[C@H]3CC[C@]12C is ____.
10.1 µg/mL
